assay system: PI3Kβ (Homo sapiens)
Construct: purchased DiscoveRx Corporation, San Diego (contract service, KINOMEscan)
Sequence (P42338 whole entry): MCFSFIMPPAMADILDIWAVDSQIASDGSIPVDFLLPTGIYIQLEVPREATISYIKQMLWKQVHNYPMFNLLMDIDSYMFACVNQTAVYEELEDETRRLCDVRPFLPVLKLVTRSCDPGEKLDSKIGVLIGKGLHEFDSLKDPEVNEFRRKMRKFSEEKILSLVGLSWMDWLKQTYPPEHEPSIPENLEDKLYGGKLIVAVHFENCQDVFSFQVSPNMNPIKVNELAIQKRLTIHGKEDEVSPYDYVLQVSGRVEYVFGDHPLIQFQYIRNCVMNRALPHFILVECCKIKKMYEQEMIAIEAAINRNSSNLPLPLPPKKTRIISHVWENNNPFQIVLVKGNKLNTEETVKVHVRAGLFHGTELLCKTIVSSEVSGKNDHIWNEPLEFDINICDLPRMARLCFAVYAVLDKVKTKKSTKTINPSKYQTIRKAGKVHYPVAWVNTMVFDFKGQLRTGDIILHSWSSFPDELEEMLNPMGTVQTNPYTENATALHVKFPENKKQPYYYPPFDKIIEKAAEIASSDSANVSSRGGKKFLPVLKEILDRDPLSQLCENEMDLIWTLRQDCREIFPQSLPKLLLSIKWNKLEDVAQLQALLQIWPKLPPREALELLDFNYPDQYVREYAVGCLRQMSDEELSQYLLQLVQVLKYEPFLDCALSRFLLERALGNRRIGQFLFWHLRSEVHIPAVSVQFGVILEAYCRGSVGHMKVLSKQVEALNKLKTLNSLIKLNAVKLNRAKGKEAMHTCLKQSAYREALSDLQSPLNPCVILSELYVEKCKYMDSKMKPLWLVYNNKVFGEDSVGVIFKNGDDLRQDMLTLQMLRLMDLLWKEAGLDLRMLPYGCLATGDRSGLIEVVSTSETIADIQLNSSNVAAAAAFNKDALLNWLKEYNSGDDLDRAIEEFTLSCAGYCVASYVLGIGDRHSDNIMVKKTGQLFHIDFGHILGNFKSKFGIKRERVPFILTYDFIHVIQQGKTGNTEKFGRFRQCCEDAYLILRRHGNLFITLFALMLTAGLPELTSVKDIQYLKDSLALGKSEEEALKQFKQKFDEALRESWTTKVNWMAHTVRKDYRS
experiment notes: Enzyme binding assay (KINOMEscan, DiscoveRx)
condition context: PIK3Cβ_h, read-out: Kd PIK3Cβ_h
endpoint: pKd
One number for each entry, as −log10 of the molar value.

Field: example entries. Status: answers known.
# compound, endpoint value
rows = [
    ("CC(Nc1ccc(F)c(F)c1)c1cc(C(=O)N2C[C@@H](C)N[C@@H](C)C2)cc2ncc(N3CCOCC3)nc12 (single isomer, unassigned) [Compound 357a]", 5.48),
    ("CC(C)NCCNC(=O)c1cc(C(C)Nc2cc(F)cc(F)c2)c2nc(N3CCOCC3)cnc2c1 (single isomer, unassigned) [Compound 211]", 9.00),
    ("CC(Oc1cccc(F)c1)c1cc(C(=O)N2CCC[C@H]2CO)cc2ncc(N3CCOCC3)nc12 (single isomer, unassigned) [Compound 86]", 7.82),
    ("CN[C@H]1CCN(C(=O)c2cc(NCc3cc(F)cc(F)c3)c3nc(N4CCOCC4)cnc3c2)C1", 8.70),
    ("CC(Nc1ccc(F)c(F)c1)c1cc(C(=O)N(C)CCN(C)C)cc2ncc(N3CCOCC3)nc12 (single isomer, unassigned) [Compound 349a]", 9.70),
]

# per-item lookup of pKd; items listed below
1. CC(Nc1cc(F)cc(F)c1)c1cc(C(=O)N2CCN(CC(F)(F)F)CC2)cc2ncc(N3CCOCC3)nc12 (single isomer, unassigned) [Compound 172]
2. CNCCN(C)C(=O)c1cc(C(C)Nc2cc(F)cc(F)c2)c2nc(N3CCOCC3)cnc2c1 (single isomer, unassigned) [Compound 152]
3. CC(C)NCCNC(=O)c1cc(C(C)Nc2ccc(F)c(F)c2)c2nc(N3CCOCC3)cnc2c1 (single isomer, unassigned) [Compound 364b]
4. CN(C)C(=O)c1cc(N2CCCC2c2cc(F)cc(F)c2)c2nc(N3CCOCC3)cnc2c1 (single isomer, unassigned) [Compound 395b]
5. CN[C@H]1CCN(C(=O)c2cc(C(C)Oc3ccc(F)c(F)c3)c3nc(N4CCOCC4)cnc3c2)C1 (single isomer, unassigned) [Compound 370b]
6. COC(=O)c1cc(C(C)Nc2cc(F)cc(Cl)c2)c2nc(N3CCOCC3)cnc2c1 (stereo not shown) [Compound 99]
7. CNCCNC(=O)c1cc(C(C)Nc2cc(F)cc(F)c2)c2nc(N3CCOCC3)cnc2c1 (single isomer, unassigned) [Compound 406b]
8. CON(C)C(=O)c1cc(C2CCCN2c2cc(F)cc(F)c2)c2nc(N3CCOCC3)cnc2c1 (stereo not shown)

1: 5.90; 2: 8.00; 3: 6.43; 4: 6.20; 5: 6.26; 6: 7.28; 7: 6.85; 8: 9.00

Where do the numbers come from? From patent US10526316B2.
